Conditions: in isopropanol, 262.45 K
readout: solubility (mole fraction)

Exam item: Report solubility (mole fraction) for COC(=O)C(C)(C)N=NC(C)(C)C(=O)OC please.
Marked response: 0.0141

---

Details: in diethyl ether, 285.55 K
readout: solubility (mole fraction)
Form: value (number only, do not type unit).

Exam item: Need solubility (mole fraction) of COC(=O)C(C)(C)N=NC(C)(C)C(=O)OC , thanks.
Marked response: 0.543

---

Details: in diethyl ether, 293.15 K
readout: solubility (mole fraction)
Just the number, please, no unit after it.

Exam item: What measured solubility (mole fraction) goes with COC(=O)C(C)(C)N=NC(C)(C)C(=O)OC ?
Marked response: 0.743

---

Conditions: in acetonitrile, 255.15 K
readout: solubility (mole fraction)
Could you keep your reply to the number by itself?

Exam item: For COC(=O)C(C)(C)N=NC(C)(C)C(=O)OC , what is its reported solubility (mole fraction)?
Marked response: 0.0705

---

Details: in ethyl acetate, 280.85 K
readout: solubility (mole fraction)

Exam item: // lookup solubility (mole fraction) for COC(=O)C(C)(C)N=NC(C)(C)C(=O)OC
Marked response: 0.433

---

Conditions: in cyclohexane, 288.45 K
readout: solubility (mole fraction)
Keep it simple and answer with nothing but the number.

Exam item: Request the reported solubility (mole fraction) associated with COC(=O)C(C)(C)N=NC(C)(C)C(=O)OC
Marked response: 0.471

---

Conditions: in ethanol, 278.15 K
readout: solubility (mole fraction)
// return just the number, without any unit appended

Exam item: Which value of solubility (mole fraction) has been reported for COC(=O)C(C)(C)N=NC(C)(C)C(=O)OC in the records?
Marked response: 0.094

---

Settings: in tetrachloromethane, 266.85 K
readout: solubility (mole fraction)
Please reply with the number alone, leaving off any unit.

Exam item: I am curious: what solubility (mole fraction) value has been reported for COC(=O)C(C)(C)N=NC(C)(C)C(=O)OC ?
Marked response: 0.214

---

Conditions: in THF, 275.95 K
readout: solubility (mole fraction)
Give a plain numeric answer without units written out.

Exam item: Form field: reported solubility (mole fraction) of COC(=O)C(C)(C)N=NC(C)(C)C(=O)OC
Marked response: 0.364

---

Details: in isopropanol, 258.95 K
readout: solubility (mole fraction)
Note: the reply should be a number with no unit written.

Exam item: For COC(=O)C(C)(C)N=NC(C)(C)C(=O)OC , what is its reported solubility (mole fraction)?
Marked response: 0.01

---

Conditions: in diethyl ether, 266.75 K
readout: solubility (mole fraction)

Exam item: # solubility (mole fraction) lookup, item COC(=O)C(C)(C)N=NC(C)(C)C(=O)OC
Marked response: 0.177

---

Conditions: in dichloromethane, 252.95 K
readout: solubility (mole fraction)
Quick one: just the number, no unit, thanks!

Exam item: I am curious: what solubility (mole fraction) value has been reported for COC(=O)C(C)(C)N=NC(C)(C)C(=O)OC ?
Marked response: 0.268

---

Details: in toluene, 273.65 K
readout: solubility (mole fraction)

Exam item: Please look up its solubility (mole fraction): COC(=O)C(C)(C)N=NC(C)(C)C(=O)OC
Marked response: 0.286

---

Details: in ethyl acetate, 260.15 K
readout: solubility (mole fraction)
No unit in the answer, only the number.

Exam item: Give its solubility (mole fraction) value. Item: COC(=O)C(C)(C)N=NC(C)(C)C(=O)OC
Marked response: 0.146

Recorded values, source BigSolDB 2.1.
